Property: pKi; scope: individual compounds
Target: opioid receptor mu (Homo sapiens)
Construct: expressed in transfected cells
Sequence (P35372 whole entry): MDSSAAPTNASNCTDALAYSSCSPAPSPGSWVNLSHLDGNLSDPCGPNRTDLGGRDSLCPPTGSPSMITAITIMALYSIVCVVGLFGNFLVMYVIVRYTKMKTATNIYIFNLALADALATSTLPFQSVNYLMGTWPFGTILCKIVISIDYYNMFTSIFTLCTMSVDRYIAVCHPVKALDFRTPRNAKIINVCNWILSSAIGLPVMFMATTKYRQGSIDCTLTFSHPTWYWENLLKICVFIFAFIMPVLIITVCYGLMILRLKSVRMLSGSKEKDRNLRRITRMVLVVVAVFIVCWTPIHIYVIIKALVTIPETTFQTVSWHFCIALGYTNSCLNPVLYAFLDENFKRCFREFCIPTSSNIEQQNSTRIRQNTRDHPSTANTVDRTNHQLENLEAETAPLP
Assay: GTPγ[35S] binding assay, antagonism of endorphin
Assay type: biochemical
Conditions: average Ki; antagonism of endorphin (1 μM) stimulated GTPγ[35S] binding, mu opioid receptor membranes; read-out: Mu functional (GTPγ[35S] binding Ki)
Method: Membranes were prepared from cells as described (Bass et al, 1996). […] Stimulation of GTPγ[^35S] binding was then quantified using a Wallac Microbeta and Ki calculations were done using Prism™ by Graphpad.
Note on units: pKi is unitless, being -log10 of a concentration expressed in mol/L.

# annotated cases, reported pKi shown
[
  {
    "Smi": "Cc1cc(CNCCC(C)C)ccc1-c1ccc(C(N)=O)cc1",
    "pKi": 7.75
  },
  {
    "Smi": "Cc1cc(C(N)=O)ccc1-c1ccc(CNCCC(C)C)c(F)c1",
    "pKi": 8.49
  },
  {
    "Smi": "CC(C)CCNCc1ccc(-c2cccc(C(N)=O)c2)cc1Cl",
    "pKi": 7.60
  },
  {
    "Smi": "Cc1cc(C(N)=O)ccc1-c1ccc(CNCCC(C)C)nc1",
    "pKi": 7.69
  },
  {
    "Smi": "CC(C)CCNCc1cc(F)c(-c2cccc(C(N)=O)c2)cc1F",
    "pKi": 7.15
  },
  {
    "Smi": "Cc1cc(C(N)=O)ccc1-c1ccc(CNCCC(C)C)cc1",
    "pKi": 8.19
  },
  {
    "Smi": "Cc1cc(C(N)=O)ccc1-c1ccc(CNCCCc2ccccc2)cc1.Cl",
    "pKi": 8.55
  },
  {
    "Smi": "Cc1cc(CNCCC(C)C)ccc1-c1cccc(C(N)=O)c1",
    "pKi": 8.83
  },
  {
    "Smi": "CC(C)CCNCc1ccc(-c2cc(F)cc(C(N)=O)c2)cc1",
    "pKi": 7.04
  }
]

With those in mind, consider the next compound.
What value of pKi has been reported for the following compound? "CC(C)CCNCc1cc(Cl)c(-c2cccc(C(N)=O)c2)c(Cl)c1" 8.92
